Cited source for all entries: patent US11389455B2

Test system: HeLa cells
test context: HeLa cells, compound exposure for 3 days; preliminary
recorded endpoint: Toxicity LD50

> print(dat)
                                   compound  recorded.measurement
1  O=C(CCCCCNc1ccc([N+](=O)[O-])c2nonc12)ON1C(=O)CCC1=O                >50 µM
2   O=C(O)CCCCCNc1ccc([N+](=O)[O-])c2nonc12                >50 µM
3  Cc1nnc(C(=O)NC(C)(C)c2nc(C(=O)NCc3ccc(F)cc3)c(O)c(=O)n2C)o1 [RAL, Raltegravir, reference compound]                >20 µM

Okay, now this compound:
Toxicity LD50 measured on `Cn1ncnc2c(=O)n(C)c(=O)nc1-2` = 0.43 µM
